System: hEPO
Test: hEPO expression in mouse serum after intramuscular injection of LNPs containing hEPO mRNA (ELISA)
Assay type: in vivo, Balb/c ByJ mice
Settings: 1 μg-dose of hEPO mRNA IM in quadriceps, serum 6 hours post-injection; LNPs lipid/DSPC/Chol/DMG-PEG2000 50:10:3.5:1.5, N/P 12
Description: LNPs comprising lipidic compound of formula (III) (or DOG-Cleave) or one of the compounds (VI), (XVII), (XIX), (XXI), (XXII), (XXIV), (XXVII) and (XXVIII), DSPC, Chol and DMG-PEG2000 at a molar ratio of 50:10:3.5:1.5, and hEPO mRNA at a N/P charge ratio=12 (unless otherwise specified in the table), were prepared as described in Example 30 by using the NanoassemblR. […] hEPO expression in mouse sera was assessed using human Erythropoietin Quantikine IVD ELISA kit (R&D Systems #DEP00). […]
Binary classification by EPO secretion IM, with 2 Log10 pg/ml as an inclusive lower bound for fulfilled; all other cases are not fulfilled.

| Molecule | Target desc | Class assignment |
| --- | --- | --- |
| CCCCCCCCC=CCCCCCCCCOCC(OCCCCCCCCC=CCCCCCCCC)C(CCCCCCCCCCCC)OC(=O)NCCOCCOCCOCCOC(=O)CNCCOC(=O)CNCCOC.O=C(O)C(F)(F)F (stereo not shown) [Compound (XXIV)] | hEPO | not fulfilled |
| CCCCCCCC/C=C\CCCCCCCCOCC(COCCOCCOCCOCCOC(=O)CNCCOC(=O)CNCCOC)OCCCCCCCC/C=C\CCCCCCCC.O=C(O)C(F)(F)F.O=C(O)C(F)(F)F (stereo not shown) [Compound (III)] | hEPO | not fulfilled |
| CCCCCCCCCOC(=O)CCCCCCCN(CCCCCCCC(=O)OC(CCCCCCCC)CCCCCCCC)C(=O)CCOCCOCCOCCOC(=O)CNCCOC(=O)CNCCOC [Compound (XXVII)] | hEPO | not fulfilled |
| CCCCCCCCC=CCCCCCCCCOCC(OCCCCCCCCC=CCCCCCCCC)C(=O)N(CCCCCCCC)CCOCCOCCOCCOCCOC(=O)CNCCOC(=O)CNCCOC.O=C(O)C(F)(F)F (stereo not shown) [Compound (XIX)] | hEPO | fulfilled |
| CCCCCCC(CCCC)C(=O)OCCCCCCOCC(COCCOCCOCCOCCOC(=O)CNCCOC(=O)CNCCOC)OCCCCCCOC(=O)C(CCCC)CCCCCC (stereo not shown) [Compound (XXII)] | hEPO | fulfilled |
| CCCCCCCC/C=C\CCCCCCCCOCC(COCCOCCOCCOCCOC(=O)CNCCOC(=O)[C@@H](N)COC)OCCCCCCCC/C=C\CCCCCCCC.Cl (stereo partly shown) [Compound (VI)] | hEPO | fulfilled |
| CCCCCCCCC(CCCCCC)C(=O)OCCCCCCOCC(OCCCCCCOC(=O)C(CCCCCC)CCCCCCCC)C(=O)N(CCCCCCCC)CCOCCOCCOCCOCCOC(=O)CNCCOC(=O)CNCCOC (stereo not shown) [Compound (XXVIII)] | hEPO | fulfilled |
